Ref: patent US9388215B2

Experiment: Pharmacokinetics in SD rats after single subcutaneous dose (Example X)
Assay type: in vivo, rat
Conditions: male, Sprague-Dawley, rat, in vivo, sc, 25 mg/kg
Experimental: After 7 days acclimation, a total of 15 male Sprague-Dawley (SD) rats (body weight: 230 to 270 g) in good health from Sino-British SIPPR/BK Lab Animal Ltd, Shanghai, were used in the study. […] Three animals in each group were used for blood collection at the time point of 5 min, 15 min, 30 min, 1 h, 2 h, 4 h, 6 h, 8 h and 24 h post-dose. […] The resulting plasma was stored frozen at −80° C. until being analyzed. […]
measurement.type: AUC(0-inf) (ng·h/mL)
Numeric only. Scale: ng·h/mL

Entry Ac-IGLHDPSHGTLPAGS-OH [Peptide 12, Ac-IGLHDPSHGTLPAGS-OH] , AUC(0-inf) reported as 11200

====

experiment: Pharmacokinetics in rat, subcutaneous bolus (Example VII); format: in vivo; conditions: male, Sprague-Dawley, plasma; RAT (SC), 25 mg/kg; read-out: AUC(0-∞)
measurement.type: AUC(0-inf) (ng·h/mL)
# unit: ng·h/mL | format: bare number

AUC(0-inf) reading for H-IGLHDPSHGTLPNGS-OH [Peptide 1, H-IGLHDPSHGTLPNGS-OH, reference compound] : 305

The reported value for Ac-IGLHDPSHGTLPNGS-OH [Peptide 16, Ac-IGLHDPSHGTLPNGS-OH] in terms of AUC(0-inf) is 12200

====

test: Peptide concentration in plasma and pancreas 30 min post dose; type: in vivo, rat; conditions: male, Sprague-Dawley, rat, plasma, sc, 25 mg/kg, male SD rats, sc bolus 25 mg/kg, 30 min post-dose; read-out: Peptide concentration, Plasma
Exercise: for every item that follows, state its recorded level at 0.5 h.
# output: bare number, implied unit ng/mL

Entry H-IGLHDPSHGTLPNGS-OH [Peptide 1, H-IGLHDPSHGTLPNGS-OH, reference compound] ; level at 0.5 h = 210

Ac-IGLHDPSHGTLPNGS-NH2 [Peptide 31, Ac-IGLHDPSHGTLPNGS-NH2] yielded level at 0.5 h of 15400

====

experiment: Pharmacokinetics in rat, subcutaneous bolus (Example VII); assay type: in vivo; settings: male, Sprague-Dawley, plasma; RAT (SC), 25 mg/kg; read-out: AUC(0-t)
measurement.type: AUC(0-t) (µg·h/mL)
The response must be a number in µg·h/mL with no trailing unit.

Memo: Ac-IGLHDPSHGTLPNGS-OH [Peptide 16, Ac-IGLHDPSHGTLPNGS-OH] , reported AUC(0-t): 12.1

Quick note, AUC(0-t) for H-IGLHDPSHGTLPNGS-OH [Peptide 1, H-IGLHDPSHGTLPNGS-OH, reference compound] landed at 0.298

====

Provide the reported Cmax of each item.
assay: Pharmacokinetics in SD rats after single subcutaneous dose (Example X); assay type: in vivo, rat; settings: plasma, sc; male Sprague-Dawley rat, subcutaneous, 25 mg/kg; read-out: Cmax
Numeric answer only, unit ng/mL assumed.

Noted for Ac-IGLHDPSHGTLPNGS-NH2 [Peptide 31, Ac-IGLHDPSHGTLPNGS-NH2] : its Cmax reads 26000

In plain terms, H-IGLHDPSHGTLPNGS-OH [Peptide 1, H-IGLHDPSHGTLPNGS-OH, reference compound] has a documented Cmax of 1190

// sample Ac-IGLHDPSHGTLPAGS-NH2 [Peptide 29, Ac-IGLHDPSHGTLPAGS-NH2] , its Cmax was 16300

Field Cmax (entry Ac-IGLHDPSHGTLPNGS-OH [Peptide 16, Ac-IGLHDPSHGTLPNGS-OH] ) reads 22100

====

experiment: Pharmacokinetics in rat, intravenous bolus; assay type: in vivo; conditions: male, Sprague-Dawley, rat, in vivo, iv, 25 mg/kg
measurement.type: Cmax (ng/mL)
Just the number in ng/mL, nothing appended.

Entry Ac-IGLHDPSHGTLPAGS-OH [Peptide 12, Ac-IGLHDPSHGTLPAGS-OH] , Cmax reported as 44300

====

Field: Cmax. Provide a value for each of the substances that follow.
assay: Pharmacokinetics in rat, intravenous bolus; type: in vivo; settings: male, Sprague-Dawley, plasma; RAT (IV), 25 mg/kg; read-out: Cmax
Just the number in ng/mL, nothing appended.

# Cmax of H-IGLHDPSHGTLPNGS-OH [Peptide 1, H-IGLHDPSHGTLPNGS-OH, reference compound] = 48.7

Consider Ac-IGLHDPSHGTLPNGS-OH [Peptide 16, Ac-IGLHDPSHGTLPNGS-OH] . Its measured Cmax is 45200

====

assay: Peptide concentration in plasma and pancreas 30 min post dose; assay type: in vivo, rat; settings: male, Sprague-Dawley, rat, in vivo, sc, 25 mg/kg, Peptide concentration, Pancreas
measurement.type: level at 0.5 h

response.value for Ac-IGLHDPSHGTLPAGS-OH [Peptide 12, Ac-IGLHDPSHGTLPAGS-OH] (field: level at 0.5 h) = 877 ng/mL

====

assay: Pharmacokinetics in SD rats after single subcutaneous dose (Example X); assay type: in vivo, rat; settings: male, Sprague-Dawley, rat, in vivo, sc, 25 mg/kg
measurement.type: Cmax (ng/mL)
# output: bare number, implied unit ng/mL

So for Ac-IGLHDPSHGTLPAGS-OH [Peptide 12, Ac-IGLHDPSHGTLPAGS-OH] , the logged Cmax turned out to be 21400
